Tested on: HOP-92 NSCLC
Assay: NCI tumour cell line growth inhibition, 48 h
attribute_measured: TGI

smi: COc1cc2ccc1OCc1cccc(n1)COc1ccc(cc1OC)C=NCCNCCN=C2
TGI: > 100 µM
--
smi: Fc1ccc(Nc2nc3ccccc3c3occc23)cc1
TGI: 19.4 µM

--- query ---
Input line: State its TGI for this molecule: `COc1ccc(/C=C/C(=O)c2ccc(OC(=O)/C=C/c3ccccc3)cc2)cc1`
Output line: > 100 µM

---

Tested on: HCT-116 colon
Experiment: NCI tumour cell line growth inhibition, 48 h
attribute_measured: TGI

Would you please look over these solved cases?
smi: COc1cnc2c(c1)C(=O)c1c-2n(CCCN2CCNCC2)c(=O)c2cc([N+](=O)[O-])ccc12
attribute_measured: TGI
reading: 1.78 µM

smi: O=[N+]([O-])c1ccc(Sc2ccncn2)c([N+](=O)[O-])c1
attribute_measured: TGI
reading: 2 µM

smi: CCCCC(=O)Nc1ccc2c(C)cc(-c3ccc(-c4cc(-c5ccc(C)cc5)cc(-c5ccc(-c6cc(C)c7ccc(NC(=O)CCCC)nc7n6)cc5)n4)cc3)nc2n1
attribute_measured: TGI
reading: > 100 µM

smi: Cc1csc(NNC(=O)Nc2ccccc2)n1
attribute_measured: TGI
reading: > 100 µM

Would you mind listing TGI for each of the following compounds?
1. COc1cc2c[n+](C)c3c4cc(OC)c(OC)cc4ccc3c2cc1OC
2. CC(=O)/C(C=Nc1c(C)n(C)n(C)c1=O)=C(/O)c1ccccc1

Output line:
1: > 100 µM; 2: > 50 µM

Dear reader, for each entry below, please note its TGI.
1. CN(C(=O)c1ccco1)C(=S)N1CCN(c2ccccn2)CC1
2. COc1ccc(/C=C/C(=O)c2ccc(OC(=O)/C=C/c3ccccc3)cc2)cc1
3. CNC(=O)NS(=O)(=O)c1ccc(C)cc1
4. COc1cc(/C=N/NC2=NCCCCN2)ccc1O

Output line:
1. > 100 µM
2. 40.4 µM
3. > 100 µM
4. > 100 µM
